test system: P388; test: Compound was tested for T/C range at optimal dose of 3.0 mg/kg for antitumor activity against P388 leukemia cells in mice.; format: functional, Mus musculus
Measurement Label: T/C (%)
Give bare numbers, in %.

Here are 4 molecules. What values of T/C were reported for them?
1. CCOP(=O)(CNC(=O)[C@@]1(O)[C@H](O)[C@]2(CC)C=CCN3CC[C@@]4(c5cc([C@@]6(C(=O)OC)C[C@@H]7CN(CCc8c6[nH]c6ccccc86)C[C@](O)(CC)C7)c(OC)cc5N(C)[C@@H]14)[C@@H]32)OCC
2. CCCCCC(NC(=O)[C@@]1(O)[C@H](O)[C@]2(CC)C=CCN3CC[C@@]4(c5cc([C@@]6(C(=O)OC)C[C@@H]7CN(CCc8c6[nH]c6ccccc86)C[C@](O)(CC)C7)c(OC)cc5N(C)[C@@H]14)[C@@H]32)P(=O)(OCC)OCC (mixture of isomers)
3. CCOC(=O)CC(NC(=O)[C@@]1(O)[C@H](O)[C@]2(CC)C=CCN3CC[C@@]4(c5cc([C@@]6(C(=O)OC)C[C@@H]7CN(CCc8c6[nH]c6ccccc86)C[C@](O)(CC)C7)c(OC)cc5N(C)[C@@H]14)[C@@H]32)P(=O)(OCC)OCC (mixture of isomers)
4. CCOP(=O)(OCC)[C@H](NC(=O)[C@@]1(O)[C@H](O)[C@]2(CC)C=CCN3CC[C@@]4(c5cc([C@@]6(C(=O)OC)C[C@@H]7CN(CCc8c6[nH]c6ccccc86)C[C@](O)(CC)C7)c(OC)cc5N(C)[C@@H]14)[C@@H]32)C(C)C

output:
[230, 203, 122, 135]
